The reader will find reported IC50 values listed item by item below.
Target: Phosphatidylinositol 4,5-bisphosphate 3-kinase catalytic subunit delta isoform (Homo sapiens)
Sequence (O00329 whole entry): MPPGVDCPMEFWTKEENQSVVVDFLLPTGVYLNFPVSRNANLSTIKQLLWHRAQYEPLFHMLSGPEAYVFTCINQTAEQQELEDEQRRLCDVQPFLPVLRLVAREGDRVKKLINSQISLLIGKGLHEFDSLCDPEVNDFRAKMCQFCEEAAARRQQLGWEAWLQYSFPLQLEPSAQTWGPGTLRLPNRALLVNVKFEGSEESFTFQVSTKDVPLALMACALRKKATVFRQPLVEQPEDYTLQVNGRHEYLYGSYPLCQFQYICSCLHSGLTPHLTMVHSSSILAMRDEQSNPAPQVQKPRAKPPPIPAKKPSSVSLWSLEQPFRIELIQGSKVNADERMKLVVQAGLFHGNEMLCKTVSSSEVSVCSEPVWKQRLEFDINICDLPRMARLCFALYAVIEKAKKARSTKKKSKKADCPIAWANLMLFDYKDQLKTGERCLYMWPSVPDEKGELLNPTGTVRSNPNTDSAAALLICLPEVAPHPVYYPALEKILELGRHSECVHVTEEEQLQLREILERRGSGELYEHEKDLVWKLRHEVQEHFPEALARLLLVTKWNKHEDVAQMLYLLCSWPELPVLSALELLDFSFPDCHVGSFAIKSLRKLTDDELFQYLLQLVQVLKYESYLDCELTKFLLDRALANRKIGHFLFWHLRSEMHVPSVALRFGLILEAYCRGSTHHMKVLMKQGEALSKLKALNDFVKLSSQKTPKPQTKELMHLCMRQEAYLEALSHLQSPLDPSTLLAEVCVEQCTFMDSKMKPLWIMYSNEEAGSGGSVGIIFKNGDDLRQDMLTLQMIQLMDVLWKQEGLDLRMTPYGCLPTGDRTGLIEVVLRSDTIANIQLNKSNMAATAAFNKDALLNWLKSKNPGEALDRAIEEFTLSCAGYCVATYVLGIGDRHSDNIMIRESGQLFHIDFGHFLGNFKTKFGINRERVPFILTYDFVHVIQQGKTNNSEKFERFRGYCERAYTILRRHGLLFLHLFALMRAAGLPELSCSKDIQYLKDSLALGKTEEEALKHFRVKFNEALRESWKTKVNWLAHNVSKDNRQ
Experiment: Inhibition of poly-His tagged human PI3Kdelta expressed in baculovirus infected insect sf9 cells coexpressing p85alpha using PI(4,5)P2 as substrate preincubated with compound for 15 mins measured after 10 mins by HTRF assay
Give your result in nM as a bare value.

Cc1ccc2[nH]c(Cc3nc(N4CCOCC4)cc(=O)[nH]3)nc2c1: 2210

# input Using known records, supply IC50 for `O=c1cc(N2CCOCC2)nc(Cc2nc3ccccc3n2-c2ccccc2)[nH]1`
# output 36

# input Provide only the value of recorded IC50 for `O=c1cc(N2CCOCC2)nc(Cc2nc3ccccc3o2)[nH]1`
# output 779

# input For the compound `Cc1ccc2nc(Cc3nc(N4CCOCC4)cc(=O)[nH]3)oc2c1` , give its reported IC50.
# output 1140

# input Recall and state the measured IC50 for `O=c1cc(N2CCOCC2)nc(Cc2nc3cc(Br)ccc3[nH]2)[nH]1` .
# output 442

# input Give reported IC50 value for `Cn1c(Cc2nc(N3CCOCC3)cc(=O)[nH]2)nc2cccc(-c3ccccc3)c21`
# output 181

Cited source: ChEMBL document CHEMBL2062364
